- Test system: 967376-340-R-J2-PDC multicell spheroid viability;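 note: spheroids exposed to agents for 7 days before read-out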
- Assay Overview: Anticancer human tumor 967376-340-R-J2-PDC patient-derived colon adenocarcinoma cell line growth inhibition [PI3K]
- Particulars: curve of compound
pIC50: −log10 of the molar value.
Quantity Name: pIC50

Worked examples, 3 molecules total:
| Molecule | pIC50 |
| --- | --- |
| CC(C)NCC(C(=O)N1CCN(c2ncnc3c2C(C)CC3O)CC1)c1ccc(Cl)cc1 (configuration not stated) | < 5.00 |
| CC(Cn1ccc(-c2ccc(C#N)c(Cl)c2)n1)NC(=O)c1cc(C(C)O)[nH]n1 (configuration not stated) | < 5.00 |
| CNC(=O)c1ccc(N2C(=S)N(c3ccc(C#N)c(C(F)(F)F)c3)C(=O)C2(C)C)cc1F | < 5.00 |

Answer for every listed entry: what is its pIC50? The entries follow.
1. Cn1nccc1Nc1nccc(-c2ccn(C(CO)c3ccc(Cl)c(F)c3)c(=O)c2)n1 (configuration not stated)
2. C#Cc1c(F)ccc2cc(O)cc(-c3ncc4c(N5CC6CCC(C5)N6)nc(OCC56CCCN5CC(F)C6)nc4c3F)c12 (configuration not stated)
3. C=CC(=O)N1CCN(c2nc(=O)n(-c3c(C)ccnc3C(C)C)c3nc(-c4c(O)cccc4F)c(F)cc23)C(C)C1 (configuration not stated)
4. CC1(C)CCC(CN2CCN(c3ccc(C(=O)NS(=O)(=O)c4ccc(NCC5CCOCC5)c([N+](=O)[O-])c4)c(Oc4cnc5[nH]ccc5c4)c3)CC2)=C(c2ccc(Cl)cc2)C1
5. Cn1ncnc1[C@H]1c2n[nH]c(=O)c3cc(F)cc(c23)N[C@@H]1c1ccc(F)cc1
6. Cn1ncc(Cl)c1-c1cc(C(=O)NC(CN)Cc2cccc(F)c2)sc1Cl (configuration not stated)

Ans.
1. < 5.00
2. < 5.00
3. < 5.00
4. < 5.00
5. < 7.00
6. < 5.00

Answer for every listed entry: what is its pIC50? The entries follow.
1. CC(=O)c1c(C)c2cnc(Nc3ccc(N4CCNCC4)cn3)nc2n(C2CCCC2)c1=O
2. C[C@@H](NC(=O)c1ncnc(N)c1Cl)c1ncc(C(=O)Nc2cc(C(F)(F)F)c(Cl)cn2)s1
3. CCN1CCN(Cc2ccc(Nc3ncc(F)c(-c4cc(F)c5nc(C)n(C(C)C)c5c4)n3)nc2)CC1

Ans.
1. < 7.00
2. < 5.00
3. < 6.00
